Test system: HL cell lines
Test: Proliferation MTT assay, median per subtype
Format: cell-based
Conditions: HL cell lines (n=4), 72 h
measure: IC50

Endpoint output: IC50 of C=CC(=O)N1CCCC(n2c(=O)c3ncccc3n(Cc3ccc(Oc4ccccc4)cc3)c2=O)C1 (stereo not shown) . Value?
13.5 µM

---

System: TOLEDO
Assay: Proliferation MTT assay, 72 h
Assay type: cell-based
Conditions: Homo sapiens, TOLEDO (GCB-DLBCL), 72 h exposure
measure: pIC50
Answers are plain numbers, as −log10 of the molar value.

API: value(readout= pIC50, system= TOLEDO, query= C=CC(=O)N1CCCC(n2c(=O)c3ncccc3n(Cc3ccc(Oc4ccccc4)cc3)c2=O)C1 (stereo not shown) )
6.22

These data points were gathered from patent US11471459B2.
